assay: Synchrotron radiation circular dichroism, alpha-helical content (Bestsel); format: physicochemical; conditions: 20% TFE, 25 °C, far-UV SRCD
Threshold 40%. alpha-helical content, TFE 20% below it: 1. alpha-helical content, TFE 20% at it or above: -1.

Task: Report whether reported alpha-helical content, TFE 20% is lower than 40% (strictly) for Ac-ASAHWGQRALQGAQAVAAAQRLVHAIAAMTQ-NH2 [P454 L481A]
Result: -1

Task: Please indicate whether the reported alpha-helical content, TFE 20% of Ac-ASAHAGQRAAQGAQAVAAAQRLVHAIALMTQ-NH2 [P454 W458A-L463A] is strictly below 40%.
Result: -1

Task: Hello, is alpha-helical content, TFE 20% of the following substance strictly smaller than 40%? Ac-ASAHWGQRALQGAQAVAAAQRAVHAIALMTQ-NH2 [P454 L475A]
Result: -1

Task: Please check: alpha-helical content, TFE 20% for Ac-ASAHWGQRALQGAQAVAAAQRLVHALALMTQ-NH2 [P454 I479L] , strictly under 40% or not?
Result: -1

Task: alpha-helical content, TFE 20% under 40%? Item: Ac-ASAHWGQRALQGAQAVAAAQRLVHAAALMTQ-NH2 [P454 I479A]
Result: 1

Task: Strictly below 40%: is that where alpha-helical content, TFE 20% of Ac-ASAHWGQRAAQGAQAVAAAQRAVSAAALMTQ-NH2 [P454 L463A-L475A-H477S-I479A] sits?
Result: 1

Task: Does the reported alpha-helical content, TFE 20% of Ac-ASAHWGQRALQGAQAVAAAQRAVSAAALMTQ-NH2 [P454 L475A-H477S-I479A] stay below 40%?
Result: -1

Task: Hello, is alpha-helical content, TFE 20% of the following substance strictly smaller than 40%? Ac-ASAHWGQRALQGAQAVAAAQRLVSAAALMTQ-NH2 [P454 H477S-I479A]
Result: -1

###

Hi there, I'd appreciate the recorded alpha-helical content, TFE 20% for every entry that follows.
assay: Synchrotron radiation circular dichroism, alpha-helical content (Bestsel); format: physicochemical; details: 20% TFE, 25 °C, far-UV SRCD
Write down the numeric answer in % and omit the unit.

Task: Give recorded alpha-helical content, TFE 20%. Ac-ASAHAGQRALQGAQAVAAAQRLVHAAALMTQ-NH2 [P454 W458A-I479A]
Result: 55

Task: For Ac-ASAHWGQQALQGAQAVAAAQQLVHAIALMTQ-NH2 [P454 R12Q] , write its alpha-helical content, TFE 20%.
Result: 50

Task: Note down alpha-helical content, TFE 20% recorded for Ac-ASAHWGQRAAQGAQAVAAAQRLVHAIALMTQ-NH2 [P454 L463A]
Result: 48

Task: Annotate the substance Ac-ASAHWGQKALQGAQAVAAAQKLVHAIALMTQ-NH2 [P454 R12K] with its measured alpha-helical content, TFE 20%.
Result: 45

Task: Given Ac-ASAHWGQRALQGAQAVAAAQRLVHAVALMTQ-NH2 [P454 I479V] , respond with its alpha-helical content, TFE 20%.
Result: 47

###

experiment: Synchrotron radiation circular dichroism, alpha-helical content (Bestsel); type: physicochemical; details: SUVs POPC:POPG 8:2 at 2 mM lipid, 25 °C, far-UV SRCD
Using alpha-helical content, POPC:POPG 8:2 as the sorting value, the categories are bucket 1 (below 10%), bucket 2 (10% to below 30%), bucket 3 (30% or more)

Task: Input Ac-ASAHWGQRALQGAQAVAAAQRAVHAIALMTQ-NH2 [P454 L475A] ; output its category
Result: bucket 2

Task: Which of the defined bands does the recorded alpha-helical content, POPC:POPG 8:2 of Ac-ASAHAGQRAAQGAQAVAAAQRLVHAIALMTQ-NH2 [P454 W458A-L463A] sit within?
Result: bucket 1

Task: State the band of Ac-ASAHWGQRAAQGAQAVAAAQRAVSAAALMTQ-NH2 [P454 L463A-L475A-H477S-I479A]
Result: bucket 1

Task: Record Ac-ASAHWGQRALQGAQAVAAAQRLVHAIAAMTQ-NH2 [P454 L481A] — which class?
Result: bucket 3

Task: Bin? Ac-ASAHWGQRALQGAQAVAAAQRLVSAIALMTQ-NH2 [P454 H477S]
Result: bucket 2

Task: Sort Ac-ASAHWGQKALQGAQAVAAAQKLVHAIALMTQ-NH2 [P454 R12K] into one of the categories.
Result: bucket 2

Task: For the record Ac-ASAHWGQRALQGAQAVAAAQRLVHAAALMTQ-NH2 [P454 I479A] , report the class its alpha-helical content, POPC:POPG 8:2 corresponds to.
Result: bucket 2

Task: Assign a bin to Ac-ASAHWGQQALQGAQAVAAAQQLVHAIALMTQ-NH2 [P454 R12Q]
Result: bucket 2

Task: Bin this entry: Ac-ASAHWGQRALQGAQAVAAAQRLVHAVALMTQ-NH2 [P454 I479V]
Result: bucket 3

Task: Category of Ac-ASAHWGQRALQGAQAVAAAQRLVHALALMTQ-NH2 [P454 I479L] , please.
Result: bucket 3

Task: Using the reported alpha-helical content, POPC:POPG 8:2, which band applies to Ac-ASAHWGQRALQGAQAVAAAQRLVSAAALMTQ-NH2 [P454 H477S-I479A] ?
Result: bucket 2

Task: Note: place this substance into its band. Item: Ac-ASAHWGQRAAQGAQAVAAAQRLVHAIALMTQ-NH2 [P454 L463A]
Result: bucket 2

Task: Category lookup for the substance Ac-ASAHWGQRALQGAQAVAAAQRAVSAAALMTQ-NH2 [P454 L475A-H477S-I479A]
Result: bucket 1

Task: # bin lookup: classify Ac-ASAHAGQRALQGAQAVAAAQRLVHAAALMTQ-NH2 [P454 W458A-I479A] by its alpha-helical content, POPC:POPG 8:2
Result: bucket 1
